Provenance of the data: patent US20090048190A1

tested on: HIV; test: microbe, parasite or virus in culture; type: cell-based; conditions: Human immunodeficiency virus 1; MT4 system
READOUT_TYPE: IC50 (nM)
Output spec: scalar in nM, unitless text.

Enquiry: Consider the compound shown here: Cc1cn([C@H]2C[C@H](N=[N+]=[N-])[C@@H](CO)O2)c(=O)[nH]c1=O [AZT, 3′-azido-3′-deoxythymidine, reference compound] What is its recorded IC50?
Return: 90

* * *

system: HIV-2; assay: Antiretroviral activity in different cell systems, HIV-2; type: cell-based; conditions: PBMC (ROD2)
READOUT_TYPE: EC50 (nM)
Output spec: scalar in nM, unitless text.

For orientation, consider the following solved cases.
>  <COMPOUND>
Nc1nc(=O)n([C@@H]2CS[C@H](CO)O2)cc1F (racemic) [(±)-FTC]

>  <UNIT_INFO>
nM

>  <EC50>
3.8

$$$$
>  <COMPOUND>
Nc1nc(=O)n(C2CSC(CO)O2)cc1F (single isomer, unassigned; (-)) [(−)-FTC]

>  <UNIT_INFO>
nM

>  <EC50>
0.7

$$$$

Enquiry: Missing value: EC50, HIV-2, entry Nc1nc(=O)n([C@H]2CS[C@@H](CO)O2)cc1F [(+)-FTC] . Fill in?
Return: 26
